subject-of-test: T1, CD137-hisFc fusion protein (Sino Biological Cat 10041-H03H) (human, UniProt Q07011 24-186)
T1 construct: Bought; also called recombinant human CD137 (fused with human Fc and His tag); not shown: His tag and human Fc
experiment-summary: BLI Octet, Fab
In this section, each of the binders is paired with its reported Kd.
I only need the number, in nM, no unit after it.

Fab 5316 (Fab, V domains shown, Fab from E. coli; also called VH17/VL17) VH: EVQLVESGGGLVQPGGSLRLSCAASGYSISSGYHWAWIRQAPGKGLEWVSSISGDGSSTYYADSVKGRFTISRDNSKNTLYLQLNSLRAEDTAVYYCAREGSDAVTGDWFAYWGQGTLVTVSS VL: DIQLTQSPSSLSASVGDRVTITCRASQGVGTYLAWYQQKPGKAPKLLIYDASSLESGVPSRFSGSGSGTDFTLTISSLQPEDFATYYCQQGYSLWTFGQGTKVEIKR; 11.4

Input line: Would you kindly share the measured Kd for Fab 4072 (Fab, V domains shown, Fab from E. coli; also called VH2/VL2) VH: EVQLVESGGGLVQPGGSLRLSCAASGFSLSTSGVAVSWIRQAPGKGLEWIGIINPNFGDTNYAQKFQGRVTISRDNSKNTLYLQLNSLRAEDTAVYYCARDEYYGGSYYFDYWGQGTLVTVSS VL: DIQLTQSPSSLSASVGDRVTITCRASQDVRTAVAWYQQKPGKAPKLLIYDASNLETGVPSRFSGSGSGTDFTLTISSLQPEDFATYYCQQSYDWPPTFGQGTKVEIKR ?
Output line: 6.95

Input line: Would you kindly share the measured Kd for Fab 7109 (Fab, V domains shown, Fab from E. coli; also called VH52/VL52) VH: EVQLVESGGGLVQPGGSLRLSCAASGFSLSTSGVGVSWIRQAPGKGLEWVSYISGSGDTTYYADSVKGRFTISRDNSKNTLYLQLNSLRAEDTAVYYCAREGSDAVLGDWFAYWGQGTLVTVSS VL: DIQLTQSPSSLSASVGDRVTITCRASQGISSYLAWYQQKPGKAPKLLIYDASNLETGVPSRFSGSGSGTDFTLTISSLQPEDFATYYCQQYYSTPLTFGQGTKVEIKR ?
Output line: 32

These measurements were taken from patent US20190055314A1.
